Test system: A2058
Assay: The compound was tested in vitro for antiproliferative activity against A2058 tumor cell lines
Assay type: functional, Homo sapiens
Design: concentration or dose not given beside the values
experimental.readout: Inhibition (%)
Kindly answer with a numeric value in %, unit omitted.

Example entries and their recorded answers appear below.
# molecule, unit.spec, Inhibition
records = [
    ("CCCCCCCCC(NC(=O)[C@@H](NC(=O)[C@H](CSCNC(C)=O)NC(=O)[C@H](CCCCN)NC(=O)[C@@H](Cc1c[nH]c2ccccc12)NC(=O)[C@@H](NC(=O)[C@H](CSCNC(C)=O)NC(=O)[C@H](N)Cc1ccccc1)c1ccc(O)cc1)[C@@H](C)O)C(=O)NCC(=O)O (some centres undefined)", "%", 97),
    ("CC(=O)NCSC[C@H](NC(=O)[C@H](N)Cc1ccccc1)C(=O)N[C@H](C(=O)N[C@H](Cc1c[nH]c2ccccc12)C(=O)N[C@@H](CCCCN)C(=O)N[C@@H](CSCNC(C)=O)C(=O)N[C@H](C(N)=O)[C@@H](C)O)c1ccc(O)cc1", "%", 30),
    ("CCCCCCCCCCCCC(N)C(=O)N[C@H](Cc1ccccc1)C(=O)N[C@@H](CSCNC(C)=O)C(=O)N[C@H](C(=O)N[C@H](Cc1c[nH]c2ccccc12)C(=O)N[C@@H](CCCCN)C(=O)N[C@@H](CSCNC(C)=O)C(=O)N[C@H](C(=O)NC1OC(C(N)=O)C(O)C(O)C1O)[C@@H](C)O)c1ccc(O)cc1 (some centres undefined)", "%", 2),
]

Please give measured Inhibition of the following entry: CCCCCCCCCCCCC(N[C@H](Cc1ccccc1)C(=O)N[C@@H](CSCNC(C)=O)C(=O)N[C@H](C(=O)N[C@H](Cc1c[nH]c2ccccc12)C(=O)N[C@@H](CCCCN)C(=O)N[C@@H](CSCNC(C)=O)C(=O)N[C@H](C(N)=O)[C@@H](C)O)c1ccc(O)cc1)C(=O)NC1OC(O)C(O)C(O)C1O (some centres undefined)
62

The measured values listed here are drawn from ChEMBL document CHEMBL1132408.
